IC50: recorded values
- assayed.system: GP IIb IIIa (Homo sapiens, UniProt P05106+P08514)
- Construct: from tissue; host or cells: outdated human platelets
- Sequence (P08514 32-887 limits assumed): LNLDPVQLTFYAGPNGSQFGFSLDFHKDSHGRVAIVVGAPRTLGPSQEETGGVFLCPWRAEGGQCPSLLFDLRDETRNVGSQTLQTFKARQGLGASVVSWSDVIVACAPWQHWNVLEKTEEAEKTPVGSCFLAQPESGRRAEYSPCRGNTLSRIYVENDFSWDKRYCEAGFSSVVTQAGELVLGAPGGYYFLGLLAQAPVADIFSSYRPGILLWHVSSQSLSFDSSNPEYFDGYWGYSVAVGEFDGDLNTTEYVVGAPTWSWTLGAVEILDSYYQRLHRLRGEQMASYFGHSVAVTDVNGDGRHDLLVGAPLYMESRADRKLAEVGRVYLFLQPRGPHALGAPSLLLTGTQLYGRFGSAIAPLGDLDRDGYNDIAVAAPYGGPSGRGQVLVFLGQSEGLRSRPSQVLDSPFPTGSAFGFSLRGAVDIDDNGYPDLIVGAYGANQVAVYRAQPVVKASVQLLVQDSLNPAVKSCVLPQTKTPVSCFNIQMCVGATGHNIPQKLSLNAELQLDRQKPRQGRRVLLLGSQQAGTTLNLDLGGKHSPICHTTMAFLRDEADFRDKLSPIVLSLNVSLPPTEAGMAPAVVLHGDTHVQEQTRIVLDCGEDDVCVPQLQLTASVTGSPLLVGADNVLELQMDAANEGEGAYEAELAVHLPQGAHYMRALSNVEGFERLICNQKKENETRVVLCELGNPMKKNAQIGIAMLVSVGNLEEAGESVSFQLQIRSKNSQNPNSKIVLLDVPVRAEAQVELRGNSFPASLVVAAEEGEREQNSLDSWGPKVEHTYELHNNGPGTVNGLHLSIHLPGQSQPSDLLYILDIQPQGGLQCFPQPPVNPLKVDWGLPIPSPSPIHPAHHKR
- Sequence (P08514 891-1039 partner limits assumed): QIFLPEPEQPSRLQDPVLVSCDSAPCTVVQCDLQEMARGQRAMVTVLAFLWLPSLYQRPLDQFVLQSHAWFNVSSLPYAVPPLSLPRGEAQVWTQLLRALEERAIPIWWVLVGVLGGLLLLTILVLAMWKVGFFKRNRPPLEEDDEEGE
- Sequence (P05106 27-788): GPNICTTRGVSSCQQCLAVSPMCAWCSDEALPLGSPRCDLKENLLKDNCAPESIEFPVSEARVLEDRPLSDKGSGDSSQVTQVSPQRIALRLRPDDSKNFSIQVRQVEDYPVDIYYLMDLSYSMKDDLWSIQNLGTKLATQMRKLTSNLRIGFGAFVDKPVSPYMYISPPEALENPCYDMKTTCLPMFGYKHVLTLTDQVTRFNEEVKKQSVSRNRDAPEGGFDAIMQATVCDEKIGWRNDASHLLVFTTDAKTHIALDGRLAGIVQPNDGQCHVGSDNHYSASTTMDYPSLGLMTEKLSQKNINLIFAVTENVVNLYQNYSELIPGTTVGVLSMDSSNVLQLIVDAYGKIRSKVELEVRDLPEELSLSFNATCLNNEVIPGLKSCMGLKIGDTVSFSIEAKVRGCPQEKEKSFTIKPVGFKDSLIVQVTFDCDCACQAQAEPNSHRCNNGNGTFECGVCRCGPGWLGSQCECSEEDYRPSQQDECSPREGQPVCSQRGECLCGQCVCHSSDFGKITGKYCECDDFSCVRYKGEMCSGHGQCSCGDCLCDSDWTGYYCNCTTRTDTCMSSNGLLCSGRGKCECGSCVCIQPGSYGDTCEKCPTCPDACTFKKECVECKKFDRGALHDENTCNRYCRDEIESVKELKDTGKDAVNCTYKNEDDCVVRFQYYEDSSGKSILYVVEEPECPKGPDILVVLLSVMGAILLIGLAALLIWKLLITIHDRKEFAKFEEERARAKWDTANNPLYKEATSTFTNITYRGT
- assay.remarks: Fibrinogen-GP IIb IIIa Receptor ELISA Binding Assay (Fg/IIbIIIa)
- condition.description: Example 30, G # table; read-out: IC50 (μM) Fg/IIbIIIa
- Method: Briefly, microtiter plates are coated with fibrinogen (10 mg/ml) and then blocked with TACTS buffer containing 0.5% bovine serum albumin (BSA). […] After another wash a goat anti-mouse IgG conjugated to horseradish peroxidase is added. […] The reaction is stopped with 1N sulfuric acid and the absorbance at 492 nm is recorded. […] The optical density at 492 nm vs 405 nm is recorded and IC50 values are determined.

{"compound": "N=C(N)NCCCCCCc1ccc2c(c1)C(=O)N(CCC(=O)O)CC(=O)N2Cc1cccc(NC(=O)CNC(=N)N)c1 [Cmpd 109]", "IC50": "0.017 µM"}
{"compound": "NCCCCCCc1ccc2c(c1)C(=O)N(CCC(=O)O)CC(=O)N2Cc1ccc2ccccc2c1 [Cmpd 83]", "IC50": "0.017 µM"}
{"compound": "N=C(N)NCCCCCc1ccc2c(c1)C(=O)N(CCC(=O)O)CC(=O)N2C(c1ccccc1)c1ccccc1 [Cmpd 69]", "IC50": "0.082 µM"}
{"compound": "O=C(O)CCN1CC(=O)N(Cc2ccc(Cl)cc2)c2ccc(-c3ccc(N4CCNCC4)cc3)cc2C1=O [Cmpd 73]", "IC50": "0.007 µM"}

====

- assayed.system: GP IIb IIIa (Homo sapiens, UniProt P05106+P08514)
- Construct: from tissue; host or cells: outdated human platelets
- assay.remarks: Fibrinogen-GP IIb IIIa Receptor ELISA Binding Assay (Fg/IIbIIIa)
- condition.description: Examples 29 and 30, Cmpd # tables; read-out: IC50 (μM) Fg/IIbIIIa
Structures can show the parent of a compound that is named as a salt.
Decide using IC50 alone. Strictly below 0.01 µM: Criterion met. Equal to or above 0.01 µM: Criterion not met.

{"compound": "NCCCCCCc1ccc2c(c1)C(=O)N(CCC(=O)O)CC(=O)N2Cc1ccc(NC(=O)CCN)cc1 [Cmpd 118]", "classification": "Criterion not met"}
{"compound": "NCCCCCc1ccc2c(c1)C(=O)N(CCC(=O)O)CCC2 [Cmpd 155]", "classification": "Criterion not met"}
{"compound": "NCCCCCc1ccc2c(c1)C(=O)N(CCC(=O)O)CC(=O)N2CCCCC(=O)O [Cmpd 132]", "classification": "Criterion not met"}
{"compound": "N=C(N)NCCCC#Cc1ccc2c(c1)C(=O)N(CCC(=O)O)CC(Cc1ccccc1)O2 (stereo not drawn) [Cmpd 149]", "classification": "Criterion not met"}
{"compound": "CN1C(=O)CN(CCC(=O)O)C(=O)c2cc3cc(C#CCN)ccc3cc21 [Cmpd 137]", "classification": "Criterion not met"}
{"compound": "CN1C(=O)CN(CCC(=O)O)C(=O)c2cc3cc(CCCCN)ccc3cc21 [Cmpd 139]", "classification": "Criterion not met"}
{"compound": "CN1C(=O)CN(CCC(=O)O)C(=O)c2cc3cc(CCCCNC(=N)N)ccc3cc21 [Cmpd 140]", "classification": "Criterion not met"}
{"compound": "N=C(N)NCCCCCc1ccc2c(c1)C(=O)N(CCC(=O)O)CC(=O)N2Cc1ccc(C(=O)O)cc1 [Cmpd 133]", "classification": "Criterion not met"}
{"compound": "NCCCCCCc1ccc2c(c1)C(=O)N(CCC(=O)O)CC(=O)N2Cc1cccc(NC(=O)CCCN)c1 [Cmpd 112]", "classification": "Criterion met"}
{"compound": "CN1C(=O)CN(CCC(=O)O)C(=O)c2cc3cc(C#CCNC(=N)N)ccc3cc21 [Cmpd 138]", "classification": "Criterion met"}
{"compound": "N=C(N)NCCCCCCc1ccc2c(c1)C(=O)N(CCC(=O)O)CC(=O)N2Cc1cccc(CCCCNC(=N)N)c1 [Cmpd 121]", "classification": "Criterion not met"}
{"compound": "N=C(N)NCCCCCc1ccc2c(c1)C(=O)N(CCC(=O)O)CC(=O)N2CCCCC(=O)O [Cmpd 131]", "classification": "Criterion not met"}
{"compound": "NCCCCCCc1ccc2c(c1)C(=O)N(CCC(=O)O)CC(=O)N2Cc1cccc(NC(=O)CCCCN)c1 [Cmpd 114]", "classification": "Criterion met"}
{"compound": "NCCCCCCc1ccc2c(c1)C(=O)N(CCC(=O)O)CC(=O)N2Cc1cccc(NC(=O)CCN)c1 [Cmpd 110]", "classification": "Criterion met"}
{"compound": "N=C(N)NCCCC#Cc1ccc2c(c1)C(=O)N(CCC(=O)O)CCC2 [Cmpd 154, trifluoroacetate]", "classification": "Criterion not met"}
{"compound": "CCCCC(=O)Nc1cccc(CN2C(=O)CN(CCC(=O)O)C(=O)c3cc(CCCCCCN)ccc32)c1 [Cmpd 123]", "classification": "Criterion not met"}
{"compound": "CN1C(=O)CN(CCC(=O)O)C(=O)c2cc3c(cc21)CCC(CCCCN)C3 (stereo not drawn) [Cmpd 143]", "classification": "Criterion not met"}
{"compound": "N=C(N)Nc1ccc(C(=O)Nc2cccc(CN3C(=O)CN(CCC(=O)O)C(=O)c4cc(CCCCCCN)ccc43)c2)cc1 [Cmpd 127]", "classification": "Criterion met"}
{"compound": "CCCCC(=O)Nc1cccc(CN2C(=O)CN(CCC(=O)O)C(=O)c3cc(CCCCCCNC(=N)N)ccc32)c1 [Cmpd 124]", "classification": "Criterion not met"}
{"compound": "NCCCCCCc1ccc2c(c1)C(=O)N(CCC(=O)O)CC(=O)N2Cc1ccc(N)cc1 [Cmpd 128]", "classification": "Criterion not met"}
{"compound": "NCCCC#Cc1ccc2c(c1)C(=O)N(CCC(=O)O)CC(Cc1ccccc1)O2 (stereo not drawn) [Cmpd 148]", "classification": "Criterion not met"}
{"compound": "N=C(N)NCCCC#Cc1ccc2c(c1)C(=O)N(CCC(=O)O)CCO2 [Cmpd 145]", "classification": "Criterion not met"}
{"compound": "N=C(N)NCCCCCc1ccc2c(c1)C(=O)N(CCC(=O)O)CCO2 [Cmpd 147]", "classification": "Criterion not met"}
{"compound": "NCCCCCCc1ccc2c(c1)C(=O)N(CCC(=O)O)CC(=O)N2Cc1cccc(NC(=O)CN)c1 [Cmpd 108]", "classification": "Criterion not met"}
{"compound": "N=C(N)NCCC#Cc1cccc(C(=O)NCCC(=O)O)c1 [Cmpd 160]", "classification": "Criterion not met"}
{"compound": "N=C(N)NCCCCCCc1ccc2c(c1)C(=O)N(CCC(=O)O)CC(=O)N2CCCCCNC(=N)N [Cmpd 126]", "classification": "Criterion not met"}
{"compound": "N=C(N)NCCCCC#Cc1cccc(C(=O)NCCC(=O)O)c1 [Cmpd 164]", "classification": "Criterion not met"}
{"compound": "NCCCCCc1ccc2c(c1)C(=O)N(CCC(=O)O)CCO2 [Cmpd 146]", "classification": "Criterion not met"}
{"compound": "NCCCCCCc1ccc2c(c1)C(=O)N(CCC(=O)O)CC(=O)N2Cc1cccc(N)c1 [Cmpd 122]", "classification": "Criterion not met"}
{"compound": "N=C(N)NCCCCCCc1ccc2c(c1)C(=O)N(CCC(=O)O)CC(=O)N2Cc1ccc(NC(=O)CCNC(=N)N)cc1 [Cmpd 119]", "classification": "Criterion not met"}
{"compound": "NCCCCC#Cc1cccc(C(=O)NCCC(=O)O)c1 [Cmpd 163]", "classification": "Criterion not met"}
{"compound": "N=C(N)c1ccc(COc2ccc3c(c2)C(=O)N(CCC(=O)O)CCC3)cc1 [Cmpd 157, trifluoroacetate]", "classification": "Criterion not met"}
{"compound": "NCCCC#Cc1ccc2c(c1)C(=O)N(CCC(=O)O)CCO2 [Cmpd 144]", "classification": "Criterion not met"}

Values from patent US5250679A
